Target or system Hepatotoxicity; recorded quantity HepSE_hepatitis.
Keep it simple and answer with nothing but the number.

HepSE_hepatitis of OCCN1CCN(CCCN2c3ccccc3Sc3ccc(Cl)cc32)CC1 , assay on Hepatotoxicity, is 0

Response field HepSE_hepatitis (Hepatotoxicity) for item C=CCC1(C(C)C#CCC)C(=O)N=C(O)N(C)C1=O (stereo not given) : 0

Param item: O=C1CN(/N=C/c2ccc(-c3ccc([N+](=O)[O-])cc3)o2)C(O)=N1 ; param system: Hepatotoxicity; output HepSE_hepatitis: 1

HepSE_hepatitis on Hepatotoxicity for Nc1nc(Cl)nc2c1ncn2[C@H]1C[C@H](O)[C@@H](CO)O1 is 0

The recorded HepSE_hepatitis with Hepatotoxicity for CC(=O)Nc1nnc(S(N)(=O)=O)s1 [ACETAZOLAMIDE] was 0

* * *

For each of the molecules below, state its HepSE_hepatitis.
When you answer, write just the number.

Entry COc1ccc(CC2c3cc(OC)c(OC)cc3CC[N+]2(C)CCC(=O)OCCCCCOC(=O)CC[N+]2(C)CCc3cc(OC)c(OC)cc3C2Cc2ccc(OC)c(OC)c2)cc1OC (stereo not drawn) , Hepatotoxicity data, HepSE_hepatitis value: 0

Measured on Hepatotoxicity, CC1Cc2ccccc2N1NC(=O)c1ccc(Cl)c(S(N)(=O)=O)c1 (stereo not drawn) [INDAPAMIDE] has a documented HepSE_hepatitis of 1

Form: item CN1CC[C@]23c4c5ccc(O)c4O[C@H]2C(=O)CC[C@H]3[C@H]1C5 [HYDROMORPHONE] ; test system Hepatotoxicity; HepSE_hepatitis: 0

// returns HepSE_hepatitis for O=c1[nH]c2ccccc2n1CCCN1CCC(n2c(=O)[nH]c3cc(Cl)ccc32)CC1 [DOMPERIDONE] with Hepatotoxicity; value = 0

HepSE_hepatitis on Hepatotoxicity for NC[C@H]1O[C@H](O[C@H]2[C@H](O)[C@@H](O[C@H]3O[C@H](CO)[C@@H](O)[C@H](N)[C@H]3O)[C@H](N)C[C@@H]2N)[C@H](N)C[C@@H]1O [TOBRAMYCIN] is 0

So the reported HepSE_hepatitis for CC(C)(C#N)c1cc(Cn2cncn2)cc(C(C)(C)C#N)c1 [ANASTROZOLE] , on Hepatotoxicity, turned out to be 1

So the reported HepSE_hepatitis for Cc1ccc(S(=O)(=O)NC(=O)NN2CCCCCC2)cc1 [TOLAZAMIDE] , on Hepatotoxicity, turned out to be 0

Kindly note: Hepatotoxicity, Oc1c(Cl)cc(Cl)c(Cl)c1Cc1c(O)c(Cl)cc(Cl)c1Cl [HEXACHLOROPHENE] , HepSE_hepatitis value reported: 0

* * *

Record: HepSE_hepatic failure reported on Hepatotoxicity.
Where a SMILES comes first, the peptide text is derived from it. Bridges are numbered along the chain shown (N, C = ends). [ ]: non-standard residue; d: D form. The star is where a group is joined. Threoninol(2S,3R) = C[C@@H](O)[C@H](CO)N*
Give the figure by itself; no unit, no explanation.

Hepatotoxicity assay, molecule C[C@@H](O)[C@H](CO)NC(=O)[C@@H]1CSSC[C@H](NC(=O)[C@H](N)Cc2ccccc2)C(=O)N[C@@H](Cc2ccccc2)C(=O)N[C@H](Cc2c[nH]c3ccccc23)C(=O)N[C@@H](CCCCN)C(=O)N[C@@H]([C@@H](C)O)C(=O)N1 (H-[dF]CF[dW]KTC-{Threoninol(2S,3R)}; disulfide 2-7) , recorded HepSE_hepatic failure = 0

Readout HepSE_hepatic failure for NC(=O)C(c1ccccc1)(c1ccccc1)[C@@H]1CCN(CCc2ccc3c(c2)CCO3)C1 [DARIFENACIN] , test system Hepatotoxicity, was 0

Measured HepSE_hepatic failure for this entry CCCc1nc2c(C)cc(-c3nc4ccccc4n3C)cc2n1Cc1ccc(-c2ccccc2C(=O)O)cc1 on Hepatotoxicity: 0

Hepatotoxicity data for CNC1=Nc2ccc(Cl)cc2C(c2ccccc2)=[N+]([O-])C1 [CHLORDIAZEPOXIDE] ; its HepSE_hepatic failure: 0

The value of HepSE_hepatic failure recorded for Cc1ccc(N(CC2=NCCN2)c2cccc(O)c2)cc1 [PHENTOLAMINE] when tested on Hepatotoxicity reads 0

Item CC[C@H]1OC(=O)[C@H](C)[C@@H](O[C@H]2C[C@@](C)(OC)[C@@H](O)[C@H](C)O2)[C@H](C)[C@@H](O[C@@H]2O[C@H](C)C[C@H](N(C)C)[C@H]2O)[C@](C)(OC)C[C@@H](C)C(=O)[C@H](C)[C@@H](O)[C@]1(C)O [CLARITHROMYCIN] was tested on Hepatotoxicity; the reported HepSE_hepatic failure is 1

Summary line: COCCCC/C(=N\OCCN)c1ccc(C(F)(F)F)cc1 [FLUVOXAMINE] , Hepatotoxicity, reported HepSE_hepatic failure = 0

Hepatotoxicity data for CC(C)(N)Cc1ccccc1 [PHENTERMINE] ; its HepSE_hepatic failure: 0

HepSE_hepatic failure on Hepatotoxicity for COCCOC(=O)C1=C(C)NC(C)=C(C(=O)OC(C)C)C1c1cccc([N+](=O)[O-])c1 (configuration not stated) [NIMODIPINE] is 0

Response field HepSE_hepatic failure (Hepatotoxicity) for item COc1cc2nc(N3CCN(C(=O)C4COc5ccccc5O4)CC3)nc(N)c2cc1OC (configuration not stated) [DOXAZOSIN] : 0

Here Nc1nc(Cl)nc2c1ncn2[C@@H]1O[C@H](CO)[C@@H](O)[C@@H]1F [CLOFARABINE] was tested on Hepatotoxicity, and its HepSE_hepatic failure came to 0

Form field, HepSE_hepatic failure with Hepatotoxicity, item COc1cc(NS(C)(=O)=O)ccc1Nc1c2ccccc2nc2ccccc12 [AMSACRINE] : 1

The observed HepSE_hepatic failure for COc1ccc(-c2ccc3cc(C(=O)O)ccc3c2)cc1C12CC3CC(CC(C3)C1)C2 when tested with Hepatotoxicity stands at 0

The reported HepSE_hepatic failure value, Hepatotoxicity, for CC(C)CN(C[C@@H](OP(=O)(O)O)[C@H](Cc1ccccc1)NC(=O)O[C@H]1CCOC1)S(=O)(=O)c1ccc(N)cc1 [FOSAMPRENAVIR] reads 0

Simply: O=C(O[C@H]1C[C@H]2CC[C@@H](C1)[N+]21CCCC1)C(O)(c1ccccc1)c1ccccc1.[Cl-] [TROSPIUM CHLORIDE] , Hepatotoxicity, HepSE_hepatic failure = 0

The molecule CCCC(C)C1(CC)C(=O)NC(=O)NC1=O (configuration not stated) [PENTOBARBITAL] , tested on Hepatotoxicity, showed HepSE_hepatic failure of 0

Measured HepSE_hepatic failure (Hepatotoxicity), entry CC(C)(C)NCC(O)c1cc(O)cc(O)c1 (configuration not stated) [TERBUTALINE] : 0

Lab entry: Hepatotoxicity assay, molecule C[C@H](Cn1cnc2c(N)ncnc21)OCP(=O)(O)O [TENOFOVIR ANHYDROUS] , HepSE_hepatic failure = 0

# value of HepSE_hepatic failure, Hepatotoxicity, item CC(CN(C)C)CN1c2ccccc2CCc2ccccc21 (configuration not stated) [TRIMIPRAMINE] = 0

The value of HepSE_hepatic failure recorded for O=NN(CCCl)C(=O)NC1CCCCC1 [LOMUSTINE] when tested on Hepatotoxicity reads 0

Observed HepSE_hepatic failure, Hepatotoxicity, CC(C)N1CCN(c2ccc(OCC3COC(Cn4cncn4)(c4ccc(Cl)cc4Cl)O3)cc2)CC1 (configuration not stated) [TERCONAZOLE] : 0

# value of HepSE_hepatic failure, Hepatotoxicity, item O=c1[nH]c(=O)n([C@H]2C[C@H](O)[C@@H](CO)O2)cc1I [IDOXURIDINE] = 0

Here CC1COc2c(N3CCN(C)CC3)c(F)cc3c(=O)c(C(=O)O)cn1c23 (configuration not stated) [OFLOXACIN] was tested on Hepatotoxicity, and its HepSE_hepatic failure came to 1

So the reported HepSE_hepatic failure for COc1cc2nc(N3CCN(C(=O)c4ccco4)CC3)nc(N)c2cc1OC [PRAZOSIN] , on Hepatotoxicity, turned out to be 0

# HepSE_hepatic failure measured on Hepatotoxicity for item CN1CCN(C2=Nc3ccccc3Oc3ccc(Cl)cc32)CC1 [LOXAPINE] = 0

Record COc1cccc2c1C(=O)c1c(O)c3c(c(O)c1C2=O)C[C@@](O)(C(=O)CO)C[C@@H]3O[C@H]1C[C@H](N)[C@H](O)[C@H](C)O1 [DOXORUBICIN] ; system Hepatotoxicity; HepSE_hepatic failure = 1

HepSE_hepatic failure for Hepatotoxicity with input O=C1C(CC[S+]([O-])c2ccccc2)C(=O)N(c2ccccc2)N1c1ccccc1 (configuration not stated) [SULFINPYRAZONE] equals 0

# lookup: CCN(CC)CCOc1ccc(C(=C(Cl)c2ccccc2)c2ccccc2)cc1 [CLOMIPHENE] on Hepatotoxicity, HepSE_hepatic failure = 0

Simply: c1ccc(CC2=NCCN2)cc1 [TOLAZOLINE] , Hepatotoxicity, HepSE_hepatic failure = 0

Known value: Hepatotoxicity HepSE_hepatic failure of the molecule COc1ccc(Cl)cc1C(=O)NCCc1ccc(S(=O)(=O)NC(=O)NC2CCCCC2)cc1 [GLYBURIDE] equals 1

Measured HepSE_hepatic failure for this entry C[C@]12C=CC(=O)C=C1CC[C@@H]1[C@@H]2C(=O)C[C@@]2(C)[C@H]1CC[C@]2(O)C(=O)CO [PREDNISONE] on Hepatotoxicity: 0

Lab entry: Hepatotoxicity assay, molecule OC[C@H]1O[C@@H](n2cnc3c2NC=NC[C@H]3O)C[C@@H]1O [PENTOSTATIN] , HepSE_hepatic failure = 0

Origin of values: ChEMBL document CHEMBL1909294
